# IC50 per record follows
Test system: 317291-083-R-J1-PDC complex spheroids, viability
test details: Anticancer human tumor 317291-083-R-J1-PDC patient-derived soft tissue sarcoma cell line growth inhibition [GQUAD]
particulars: curve of first compound; second compound 10 µM
readout type: IC50

>>> result_value("O=C(c1cc(Cc2n[nH]c(=O)c3ccccc23)ccc1F)N1CCN(C(=O)C2CC2)CC1 + Cc1[nH]c2ccc(F)cc2c1-c1nc2c3cccnc3c3ncccc3c2[nH]1")
"> 10000 nM"
>>> result_value("O=c1[nH]cc(F)c(=O)[nH]1 + CN(C)c1ccc(Nc2c3ccc(NC(=O)CCN4CCCC4)cc3nc3cc(NC(=O)CCN4CCCC4)ccc23)cc1")
"< 31.6 nM"
>>> result_value("O=C(NO)c1cnc(N2CCN(S(=O)(=O)c3ccc4ccccc4c3)CC2)nc1 + Cc1[nH]c2ccc(F)cc2c1-c1nc2c3cccnc3c3ncccc3c2[nH]1")
"< 31.6 nM"
>>> result_value("CC(C)(O)C1CCC(Nc2ccc3ncc(-c4cccc(C(F)(F)F)c4)n3n2)CC1 (configuration not stated) + CN(C)c1ccc(Nc2c3ccc(NC(=O)CCN4CCCC4)cc3nc3cc(NC(=O)CCN4CCCC4)ccc23)cc1")
"< 31.6 nM"
>>> result_value("CC(=O)O[C@H]1C(=O)[C@@]2(C)[C@H]([C@H](OC(=O)c3ccccc3)[C@]3(O)C[C@H](OC(=O)[C@H](O)[C@@H](NC(=O)c4ccccc4)c4ccccc4)C(C)=C1C3(C)C)[C@]1(OC(C)=O)CO[C@@H]1C[C@@H]2O + Cc1cnc(CNC(=O)c2c(=O)c3ccc(N4CCCN(C)CC4)nc3n3c2sc2ccccc23)cn1")
"< 31.6 nM"
>>> result_value("COc1ncnc(C2CC2)c1-c1ncc2cnn(Cc3ccc(-c4nc(C(F)(F)F)cn4C(C)C)cc3)c2n1 + CN(C)c1ccc(Nc2c3ccc(NC(=O)CCN4CCCC4)cc3nc3cc(NC(=O)CCN4CCCC4)ccc23)cc1")
"< 31.6 nM"
>>> result_value("Cc1[nH]c2ccccc2c1CCNCc1ccc(/C=C/C(=O)NO)cc1 + Cc1cnc(CNC(=O)c2c(=O)c3ccc(N4CCCN(C)CC4)nc3n3c2sc2ccccc23)cn1")
"< 0.999 nM"
>>> result_value("CC(C)n1c(=O)n(C)c2cnc3cc(F)c(-c4ccc(OCCCN5CCCCC5)nc4)cc3c21 + Cc1cnc(CNC(=O)c2c(=O)c3ccc(N4CCCN(C)CC4)nc3n3c2sc2ccccc23)cn1")
"< 31.6 nM"
>>> result_value("COc1ccc([C@@H](O)c2cc(-c3ncnc4cc(N5CCOCC5)ccc34)c(F)cc2Cl)nn1 + CN(C)c1ccc(Nc2c3ccc(NC(=O)CCN4CCCC4)cc3nc3cc(NC(=O)CCN4CCCC4)ccc23)cc1")
"< 31.6 nM"
>>> result_value("CC[C@@]1(O)C(=O)OCc2c1cc1n(c2=O)Cc2cc3c(CN(C)C)c(O)ccc3nc2-1 + Cc1cnc(CNC(=O)c2c(=O)c3ccc(N4CCCN(C)CC4)nc3n3c2sc2ccccc23)cn1")
"< 0.999 nM"
>>> result_value("CC(C)n1c(=O)n(C)c2cnc3cc(F)c(-c4ccc(OCCCN5CCCCC5)nc4)cc3c21 + CN(C)c1ccc(Nc2c3ccc(NC(=O)CCN4CCCC4)cc3nc3cc(NC(=O)CCN4CCCC4)ccc23)cc1")
"< 31.6 nM"
>>> result_value("COc1ncnc(C2CC2)c1-c1ncc2cnn(Cc3ccc(-c4nc(C(F)(F)F)cn4C(C)C)cc3)c2n1 + Cc1[nH]c2ccc(F)cc2c1-c1nc2c3cccnc3c3ncccc3c2[nH]1")
"< 31.6 nM"

* * *

Tested on: 317291-083-R-J1-PDC complex spheroids, viability
test details: Anticancer human tumor 317291-083-R-J1-PDC cell line growth inhibition [GQUAD]; active = viability on the fitted dose curve at most 10% of control; inactive = the rest;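 also: spheroids exposed to compounds for one week before readout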
particulars: second compound 10 µM; first compound 0.0999 µM
Labels: 1.0 = active, 0.0 = inactive

>>> qualitative_label("CCc1c2c(nc3ccc(O)cc13)-c1cc3c(c(=O)n1C2)COC(=O)[C@]3(O)CC + Cc1[nH]c2ccc(F)cc2c1-c1nc2c3cccnc3c3ncccc3c2[nH]1")
1.0
>>> qualitative_label("CC[C@@]1(O)C(=O)OCc2c1cc1n(c2=O)Cc2cc3c(CN(C)C)c(O)ccc3nc2-1 + CN(C)c1ccc(Nc2c3ccc(NC(=O)CCN4CCCC4)cc3nc3cc(NC(=O)CCN4CCCC4)ccc23)cc1")
1.0
>>> qualitative_label("CC[C@@]1(O)C(=O)OCc2c1cc1n(c2=O)Cc2cc3c(CN(C)C)c(O)ccc3nc2-1 + Cc1[nH]c2ccc(F)cc2c1-c1nc2c3cccnc3c3ncccc3c2[nH]1")
0.0

* * *

Test system: 317291-083-R-J1-PDC complex spheroids, viability
test details: Anticancer human tumor 317291-083-R-J1-PDC cell line growth inhibition [GQUAD];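 also: spheroids exposed to compounds for one week before readout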
particulars: curve of first compound; second compound 0.0316 µM
pIC50: −log10 of the molar value.
readout type: pIC50

>>> result_value("CC(C)n1c(=O)n(C)c2cnc3cc(F)c(-c4ccc(OCCCN5CCCCC5)nc4)cc3c21 + Cc1[nH]c2ccc(F)cc2c1-c1nc2c3cccnc3c3ncccc3c2[nH]1")
"< 5.00"
>>> result_value("C=CC(=O)N1CCN(c2nc(=O)n(-c3c(C)ccnc3C(C)C)c3nc(-c4c(O)cccc4F)c(F)cc23)C(C)C1 (stereo not drawn) + Cc1cnc(CNC(=O)c2c(=O)c3ccc(N4CCCN(C)CC4)nc3n3c2sc2ccccc23)cn1")
"< 5.00"
>>> result_value("O=C(c1cc(Cc2n[nH]c(=O)c3ccccc23)ccc1F)N1CCN(C(=O)C2CC2)CC1 + Cc1[nH]c2ccc(F)cc2c1-c1nc2c3cccnc3c3ncccc3c2[nH]1")
"< 5.00"

* * *

Tested on: 317291-083-R-J1-PDC complex spheroids, viability
test details: Anticancer human tumor 317291-083-R-J1-PDC cell line growth inhibition [GQUAD];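 also: spheroids exposed to compounds for one week before readout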
particulars: curve of first compound; second compound 1 µM
pIC50: −log10 of the molar value.
# pIC50 per record follows
readout type: pIC50

>>> result_value("Cc1[nH]c2ccccc2c1CCNCc1ccc(/C=C/C(=O)NO)cc1 + Cc1[nH]c2ccc(F)cc2c1-c1nc2c3cccnc3c3ncccc3c2[nH]1")
8.39
>>> result_value("COc1cccc2c1C(=O)c1c(O)c3c(c(O)c1C2=O)CC(O)(C(=O)CO)CC3OC1CC(N)C(O)C(C)O1 (configuration not stated) + Cc1[nH]c2ccc(F)cc2c1-c1nc2c3cccnc3c3ncccc3c2[nH]1")
6.87
>>> result_value("CC1COCCN1c1cc(C2(O)CC3CCC(C2)O3)c2cnn(-c3ccn[nH]3)c2n1 (configuration not stated) + Cc1[nH]c2ccc(F)cc2c1-c1nc2c3cccnc3c3ncccc3c2[nH]1")
7.29
>>> result_value("O=c1[nH]cc(F)c(=O)[nH]1 + CN(C)c1ccc(Nc2c3ccc(NC(=O)CCN4CCCC4)cc3nc3cc(NC(=O)CCN4CCCC4)ccc23)cc1")
7.50
>>> result_value("O=c1[nH]cc(F)c(=O)[nH]1 + Cc1[nH]c2ccc(F)cc2c1-c1nc2c3cccnc3c3ncccc3c2[nH]1")
5.80

* * *

Tested on: 317291-083-R-J1-PDC complex spheroids, viability
test details: Anticancer human tumor 317291-083-R-J1-PDC cell line growth inhibition [GQUAD];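 also: spheroids exposed to compounds for one week before readout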;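 as to viability, T/C: percent viability relative to DMSO vehicle wells taken as 100%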
particulars: second compound 10 µM; first compound 0.1 µM; stronger effect = lower value
Threshold 20%. viability, T/C below it: 1. viability, T/C at it or above: 0.

>>> qualitative_label("CC(C)n1c(=O)n(C)c2cnc3cc(F)c(-c4ccc(OCCCN5CCCCC5)nc4)cc3c21 + Cc1cnc(CNC(=O)c2c(=O)c3ccc(N4CCCN(C)CC4)nc3n3c2sc2ccccc23)cn1")
1
>>> qualitative_label("CC1COCCN1c1cc(C2(O)CC3CCC(C2)O3)c2cnn(-c3ccn[nH]3)c2n1 (centres undefined) + Cc1[nH]c2ccc(F)cc2c1-c1nc2c3cccnc3c3ncccc3c2[nH]1")
1
>>> qualitative_label("O=C(NO)c1cnc(N2CCN(S(=O)(=O)c3ccc4ccccc4c3)CC2)nc1 + Cc1cnc(CNC(=O)c2c(=O)c3ccc(N4CCCN(C)CC4)nc3n3c2sc2ccccc23)cn1")
1
>>> qualitative_label("Nc1ccn(C2OC(CO)C(O)C2(F)F)c(=O)n1 (centres undefined) + CN(C)c1ccc(Nc2c3ccc(NC(=O)CCN4CCCC4)cc3nc3cc(NC(=O)CCN4CCCC4)ccc23)cc1")
1
>>> qualitative_label("COc1cccc2c1C(=O)c1c(O)c3c(c(O)c1C2=O)CC(O)(C(=O)CO)CC3OC1CC(N)C(O)C(C)O1 (centres undefined) + CN(C)c1ccc(Nc2c3ccc(NC(=O)CCN4CCCC4)cc3nc3cc(NC(=O)CCN4CCCC4)ccc23)cc1")
1
>>> qualitative_label("CC1COCCN1c1cc(C2(S(C)(=N)=O)CC2)nc(-c2ccnc3[nH]ccc23)n1 (centres undefined) + Cc1[nH]c2ccc(F)cc2c1-c1nc2c3cccnc3c3ncccc3c2[nH]1")
0
>>> qualitative_label("C=CC(=O)N1CCN(c2nc(=O)n(-c3c(C)ccnc3C(C)C)c3nc(-c4c(O)cccc4F)c(F)cc23)C(C)C1 (centres undefined) + Cc1[nH]c2ccc(F)cc2c1-c1nc2c3cccnc3c3ncccc3c2[nH]1")
0
>>> qualitative_label("COc1ncnc(C2CC2)c1-c1ncc2cnn(Cc3ccc(-c4nc(C(F)(F)F)cn4C(C)C)cc3)c2n1 + CN(C)c1ccc(Nc2c3ccc(NC(=O)CCN4CCCC4)cc3nc3cc(NC(=O)CCN4CCCC4)ccc23)cc1")
1
>>> qualitative_label("COc1ccc([C@@H](O)c2cc(-c3ncnc4cc(N5CCOCC5)ccc34)c(F)cc2Cl)nn1 + Cc1cnc(CNC(=O)c2c(=O)c3ccc(N4CCCN(C)CC4)nc3n3c2sc2ccccc23)cn1")
0
>>> qualitative_label("CC(=O)O[C@H]1C(=O)[C@@]2(C)[C@H]([C@H](OC(=O)c3ccccc3)[C@]3(O)C[C@H](OC(=O)[C@H](O)[C@@H](NC(=O)c4ccccc4)c4ccccc4)C(C)=C1C3(C)C)[C@]1(OC(C)=O)CO[C@@H]1C[C@@H]2O + Cc1[nH]c2ccc(F)cc2c1-c1nc2c3cccnc3c3ncccc3c2[nH]1")
1
>>> qualitative_label("O=c1[nH]cc(F)c(=O)[nH]1 + CN(C)c1ccc(Nc2c3ccc(NC(=O)CCN4CCCC4)cc3nc3cc(NC(=O)CCN4CCCC4)ccc23)cc1")
1
>>> qualitative_label("COc1cc(C2c3cc4c(cc3C(OC3OC5COC(C)OC5C(O)C3O)C3COC(=O)C23)OCO4)cc(OC)c1O (centres undefined) + CN(C)c1ccc(Nc2c3ccc(NC(=O)CCN4CCCC4)cc3nc3cc(NC(=O)CCN4CCCC4)ccc23)cc1")
1
>>> qualitative_label("Nc1ccn(C2OC(CO)C(O)C2(F)F)c(=O)n1 (centres undefined) + Cc1[nH]c2ccc(F)cc2c1-c1nc2c3cccnc3c3ncccc3c2[nH]1")
1
>>> qualitative_label("C#Cc1c(F)ccc2cc(O)cc(-c3ncc4c(N5CC6CCC(C5)N6)nc(OCC56CCCN5CC(F)C6)nc4c3F)c12 (centres undefined) + Cc1cnc(CNC(=O)c2c(=O)c3ccc(N4CCCN(C)CC4)nc3n3c2sc2ccccc23)cn1")
0
